targetEntity: T1, 6His-AviTag-linked cynomolgus monkey IL-33 (residues 112 to 269) (cynomolgus monkey, UniProt O95760 112-269 (human entry), biotin on the AviTag portion (BirA) in the SPR of Example 7; used without biotinylation in Example 10)
T1 construct: GenBank EHH57404 printed; also called cynomolgus monkey IL-33 protein; mature cynomolgus monkey IL-33
T1 chain: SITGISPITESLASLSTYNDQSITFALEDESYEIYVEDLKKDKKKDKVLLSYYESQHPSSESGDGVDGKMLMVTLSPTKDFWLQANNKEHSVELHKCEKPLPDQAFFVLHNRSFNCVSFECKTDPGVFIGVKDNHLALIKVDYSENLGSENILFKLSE
assaySummary: SPR, IL-33 on chip, Fab supernatant as analyte
We begin with a simple list: items and their reported koff.
The reply should contain only the number, in s⁻¹.

Form field koff, entry A28-2C06 (Fab) (Fab, V domains shown, Fab secreted by E. coli, tested as culture supernatant; also called V25) VH: EVQLLESGGGLVQPGGSLRLSCAASGFTFSNYYMHWVRQAPGKGLEWVSSISARSSYIYYAGSVKGRFTISRDNSKNTLYLQMNSLRAEDTAVYYCARLGTRRVAFDIWGQGTLVTVSS VL: QSVLTQPPSASGTPGQRVTISCSGSSSNIGRNAVNWYQQLPGTAPKLLIYASNMRGMGVPDRFSGSKSGTSASLAISGLRSEDEADYYCSAWDDSQKVVVFGGGTKLTVL : 1e-05

Could you now consider this next binder?
Form field koff, entry A26-1F02 (Fab) (Fab, V domains shown, Fab secreted by E. coli, tested as culture supernatant; also called V18) VH: EVQLLESGGGLVQPGGSLRLSCAASGFTFSNYYMHWVRQAPGKGLEWVSSISARSSYLYYADSVKGRFTISRDNSKNTLYLQMNSLRAEDTAVYYCARLATRHVAFDIWGQGTLVTVSS VL: QSVLTQPPSASGTPGQRVTISCSGSSSNIGNNAVNWYQQLPGTAPKLLIYASNMRRPGVPDRFSGSKSGTSASLAISGLRSEDEADYYCEAWDDSQKAVVFGGGTKLTVL : 1e-05

Where these numbers come from: patent US20240002495A1
